Tested on: EVSAT
assay-summary: GRmax, 72 h; higher = less effect;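 also: breast cell lines in 384-well plates, nine doses across a 10^4 range, Dye Drop imaging of viable cells vs DMSO and time-zero plates, GR 0 means no net growth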
endpoint-label: GRmax, 72 h (GR)
Provide the reading as a plain figure in GR.

Examples with their reported GRmax, 72 h follow.
compound: Cc1cc(Nc2ncc(Cl)c(Nc3ccccc3S(=O)(=O)C(C)C)n2)c(OC(C)C)cc1C1CCNCC1 [Ceritinib/LDK378] (max 10 µM)
GRmax, 72 h / GR: 0.646
--
compound: Cc1nn(C)c(COc2ccc(N3CCN(S(=O)(=O)N(C)C)CC3)cc2)c1-c1cccc2c(CCCOc3cccc4ccccc34)c(C(=O)O)n(CCN3CCOCC3)c12 (max 10 µM)
GRmax, 72 h / GR: 0.901
--
compound: CC(=O)c1c(C)c2cnc(Nc3ccc(N4CCNCC4)cn3)nc2n(C2CCCC2)c1=O (max 3.162 µM)
GRmax, 72 h / GR: 0.646
--
compound: Nc1cc(C(F)(F)F)c(-c2cc(N3CCOCC3)nc(N3CCOCC3)n2)cn1 [Buparlisib/NVP-BKM120] (max 10 µM)
GRmax, 72 h / GR: -0.499

Please list GRmax, 72 h recorded for the compound CC[C@@H]1C(=O)N(C)c2cnc(Nc3ccc(C(=O)N[C@H]4CC[C@H](N5CCN(CC6CC6)CC5)CC4)cc3OC)nc2N1C(C)C [Volasertib/BI6727] (max 1 µM)
-0.375

Provide only the value of recorded GRmax, 72 h for COc1cc2nccc(Oc3ccc(NC(=O)C4(C(=O)Nc5ccc(F)cc5)CC4)cc3)c2cc1OC [Cabozantinib] (max 10 µM)
0.654

Tell me its GRmax, 72 h given CN1CCN(C(=O)c2ccc3cc(CCNc4ncnc5ccc(C#N)cc45)ccc3c2)CC1 [senexin b] (max 10 µM) as the entry.
0.642

Answer with reported GRmax, 72 h of CO[C@H]1C[C@@H]2CC[C@@H](C)[C@@](O)(O2)C(=O)C(=O)N2CCCC[C@H]2C(=O)O[C@H]([C@H](C)C[C@@H]2CC[C@@H](OCCO)[C@H](OC)C2)CC(=O)[C@H](C)/C=C(\C)[C@@H](O)[C@@H](OC)C(=O)[C@H](C)C[C@H](C)/C=C/C=C/C=C/1C [Everolimus] (max 10 µM)
0.354

Specify reported GRmax, 72 h for the compound shown: C=CC(=O)Nc1ccc(C(=O)Nc2[nH]nc3c2CN(C(=O)N[C@H](CN(C)C)c2ccccc2)C3(C)C)cc1 [YKL-5-124] (max 10 µM)
-0.401

* * *

Tested on: MDAMB157
assay-summary: area over the GR curve, 72 h; higher = more effect;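 also: Dye Drop or Deep Dye Drop imaging of viable cells in 384-well plates (Hoechst nuclei, LIVE/DEAD dye), nine half-log doses, GR normalized to DMSO controls and time-zero plates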
Each entry below lists one item and its recorded area over the GR curve value.
API: value field is a number in GR; no unit string.

For the compound CCc1cnn2c(NCc3ccc[n+]([O-])c3)cc(N3CCCC[C@H]3CCO)nc12 (max 1 µM) , give its reported area over the GR curve.
0.765

Tell us which area over the GR curve value is on record for Nc1cc(C(F)(F)F)c(-c2cc(N3CCOCC3)nc(N3CCOCC3)n2)cn1 [Buparlisib/NVP-BKM120] (max 10 µM)
0.302

Quote area over the GR curve reported for CN(C)CC[C@H](CSc1ccccc1)Nc1ccc(S(=O)(=O)NC(=O)c2ccc(N3CCN(Cc4ccccc4-c4ccc(Cl)cc4)CC3)cc2)cc1[N+](=O)[O-] [ABT-737] (max 10 µM) please.
0.0446
